Target: T1, human PVRIG-mFc protein (Acro, PVG-H5253) (human, UniProt Q6DKI7 41-171, limits assumed)
T1 construct: bought protein
T1 sequence (looked up): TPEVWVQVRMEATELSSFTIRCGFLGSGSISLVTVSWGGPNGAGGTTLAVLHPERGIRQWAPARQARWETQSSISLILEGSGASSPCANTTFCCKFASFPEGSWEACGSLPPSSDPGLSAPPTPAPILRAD
Experiment: FACS competition, PVRIG-mFc binding to CHO-K1-CD112 cells, competitor CD112 on cells
readoutType: % IC50 to COM701-hIgG4 (%)
Note: unit % is implicit; provide only the numeric part.

Some solved entries appear below for comparison.
• PVRIG-A105 (Fc fusion, heavy chain antibody VHH-hinge-CH2-CH3, human IgG1 constant part; not shown: human IgG1 hinge-CH2-CH3) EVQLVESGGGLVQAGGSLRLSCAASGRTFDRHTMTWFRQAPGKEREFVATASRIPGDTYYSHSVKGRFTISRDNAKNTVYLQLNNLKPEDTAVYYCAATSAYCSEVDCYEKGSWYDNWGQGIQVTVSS = 99.7
• PVRIG-A43 (Fc fusion, heavy chain antibody VHH-hinge-CH2-CH3, human IgG1 constant part; not shown: human IgG1 hinge-CH2-CH3) QVQLVESGGGLVQSGGSLRLSCAASGRTRSMYVMGWFRQAPGKEREFVGRIKWSGDTTYTSYADFVKGRFTLYGNQARNTVYLQMNSLKVEDTAVYYCAGRVVPLPSRQRDRYDYWGQGTQVTVSS = 121
• PVRIG-A75 (Fc fusion, heavy chain antibody VHH-hinge-CH2-CH3, human IgG1 constant part; not shown: human IgG1 hinge-CH2-CH3) QLQLVESGGGLVQSGGSLRLSCAASGRTRSMYVMGWFRQAPGKEREFVGRIKWSGDTTYTSYADFVKGRFTLYGNQARNTVYLQMNSLKPEDTAVYSCAASKFPVSGVPEHYDYWGQGTQVTVSS = 89.6

// lookup % IC50 to COM701-hIgG4 for PVRIG-A50 (Fc fusion, heavy chain antibody VHH-hinge-CH2-CH3, human IgG1 constant part; also called PVRIG-50; not shown: human IgG1 hinge-CH2-CH3) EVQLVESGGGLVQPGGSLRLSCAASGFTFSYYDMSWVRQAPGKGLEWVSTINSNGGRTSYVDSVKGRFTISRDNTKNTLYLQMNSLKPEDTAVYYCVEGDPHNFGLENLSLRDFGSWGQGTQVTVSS
99.1

// lookup % IC50 to COM701-hIgG4 for PVRIG-A15 (Fc fusion, heavy chain antibody VHH-hinge-CH2-CH3, human IgG1 constant part; not shown: human IgG1 hinge-CH2-CH3) QVQLVESGGGLVQAGGSLRLSCVASGRTFSANTMAWFRQAPGKEREFVAYTRWTDDNTDYASYADFVKGRFTAFRDNTRNTMYLQMNRLRPEDTAVYYCAAATTRGTYYSAGDYNSWGQGTQVTVSS
54.1

// lookup % IC50 to COM701-hIgG4 for PVRIG-A35 (Fc fusion, heavy chain antibody VHH-hinge-CH2-CH3, human IgG1 constant part; not shown: human IgG1 hinge-CH2-CH3) EVQVVESGGGLVQSGGSLRLSCAASGRTRSMYVMGWFRQAPGKEREFVGRIKWSGDTTYTSYADFVKGRFTLYGNQARNTVYLQMNSLKPEDTAVYYCNGRSRFNVINAWGTGTLVTVAS
138

// lookup % IC50 to COM701-hIgG4 for PVRIG-A113 (Fc fusion, heavy chain antibody VHH-hinge-CH2-CH3, human IgG1 constant part; not shown: human IgG1 hinge-CH2-CH3) QLQLVESGGGLVQSGGSLRLSCAASGRTRSMYVMGWFRQAPGKEREFVGRIKWSGDTTYTSYADFVKGRFTLYGNQARNTVYLQMNSLKPEDTAVYYCAALPSDYDYRAASYGVDYWGKGTLVTVSS
124

// lookup % IC50 to COM701-hIgG4 for PVRIG-A104 (Fc fusion, heavy chain antibody VHH-hinge-CH2-CH3, human IgG1 constant part; not shown: human IgG1 hinge-CH2-CH3) EVQVVESGGGLVQAGGSLRLSCAASGRTRSMYVMGWFRQAPGKEREFVGRIKWSGDTTYTSYADFVKGRFTLYGNQARNTVYLQMNSLKPEDTAVYYCYRRSWTNTKLYWGKGIQVTVSS
118

// lookup % IC50 to COM701-hIgG4 for PVRIG-A118 (Fc fusion, heavy chain antibody VHH-hinge-CH2-CH3, human IgG1 constant part; not shown: human IgG1 hinge-CH2-CH3) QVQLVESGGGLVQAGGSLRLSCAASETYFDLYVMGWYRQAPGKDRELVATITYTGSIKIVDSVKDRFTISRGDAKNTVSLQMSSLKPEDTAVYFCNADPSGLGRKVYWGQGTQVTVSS
111
